testedSystem: GABA transporter (Mus musculus) (UniProt P31650+P31651+P31649+P31648)
assayProtocol: Dose that protected 50% of the mice against seizures induced by intraperitoneally administered DMCM (15 mg/Kg) 30 min after intraperitoneal administration
Format: functional, organism-based
measurementName: log10(ED50) (log10 of the value in mg/kg)
In our notation, the value equals log10 of ED50 in mg/kg.

smilesRepresentation	testedSystem	log10(ED50)
CCc1ccccc1C(=NOCCN1CCC=C(C(=O)O)C1)c1ccccc1CC	GABA transporter (Mus musculus) (UniProt P31650+P31651+P31649+P31648)	0.08
O=C(O)[C@@H]1CCCN(CCOC=C(c2cc(F)ccc2F)c2cc(F)ccc2F)C1	GABA transporter (Mus musculus) (UniProt P31650+P31651+P31649+P31648)	0.36
Cc1ccsc1/C(=N\OCCN1CCC[C@@H](C(=O)O)C1)c1cccs1	GABA transporter (Mus musculus) (UniProt P31650+P31651+P31649+P31648)	0.79
Cc1ccsc1C(=NOCCN1CCC[C@@H](C(=O)O)C1)c1sccc1C	GABA transporter (Mus musculus) (UniProt P31650+P31651+P31649+P31648)	0.23

Record Cc1ccccc1/C(=C\OCCN1CCC=C(C(=O)O)C1)c1cccc(Cl)c1 . Reported log10(ED50): 0.20

Just so you know, measured log10(ED50) for COc1cccc(/C(=N\OCCN2CCC[C@@H](C(=O)O)C2)c2sccc2C)c1.Cl came out at 0.60

Value of measured log10(ED50) for the entry Cc1ccccc1/C(=C\OCCN1CCC[C@@H](C(=O)O)C1)c1sccc1C : -0.22

The measured log10(ED50) associated with O=C(O)[C@@H]1CCCN(CCON=C(c2ccccc2)c2ccccc2)C1 reads 0.51

Short answer for Cc1ccccc1/C(=N/OCCN1CCC[C@@H](C(=O)O)C1)c1ccccc1Cl : log10(ED50) was 0.40

---

testedSystem: GABA transporter (Mus musculus) (UniProt P31650+P31651+P31649+P31648)
assayProtocol: Dose that protected 50% of the mice against seizures induced by intraperitoneally administered DMCM (15 mg/Kg) 30 min after intraperitoneal administration
Format: functional, organism-based
Please assign 0.0 whenever ED50 is at or above 2 mg/kg, and 1.0 whenever it is below.

Check out these entries, answers already filled in.
compound	category
Cc1csc(/C(=N\OCCN2CCC[C@H](C(=O)O)C2)c2ccccc2C)c1.Cl	0.0
Cc1ccsc1/C(=N/OCCN1CCC[C@@H](C(=O)O)C1)c1ccc(Cl)cc1Cl	1.0
Cl.O=C(O)C1CCCN(CCO/N=C(\c2ccccc2)c2ccccn2)C1 (centres undefined)	0.0
Cl.O=C(O)[C@@H]1CCCN(CCON=C(c2cccc(Cl)c2)c2cccc(Cl)c2)C1	0.0
O=C(O)[C@@H]1CCCN(CCOC=C(c2ccc(F)cc2Cl)c2ccc(F)cc2Cl)C1	0.0

# input Is the reported ED50 for Cc1ccsc1C(=CCCN1CCC[C@@H](C(=O)O)C1)c1sccc1C.Cl [TIAGABINE HYDROCHLORIDE] strictly below 2 mg/kg?
# output 1.0

# input Quick check: ED50 of Cl.O=C(O)[C@@H]1CCCN(CCO/N=C(/c2ccc(F)cc2F)c2cc(F)ccc2F)C1 under 2 mg/kg?
# output 1.0

# input In the record for O=C(O)[C@@H]1CCCN(CCOC=C(c2ccc(F)cc2F)c2ccc(F)cc2F)C1 , is ED50 less than 2 mg/kg?
# output 1.0

# input Lab note: confirm whether the reported ED50 for this compound is below 2 mg/kg, equality not counting. compound: CCc1ccsc1C(=NOCCN1CCC[C@@H](C(=O)O)C1)c1sccc1CC
# output 0.0

# input Lab log: compare recorded ED50 with 2 mg/kg; is it strictly lower for CCc1ccccc1C(=COCCN1CCC[C@@H](C(=O)O)C1)c1ccccc1CC ?
# output 1.0

# input Quick check: does Cc1ccccc1/C(=C/OCCN1CCC[C@@H](C(=O)O)C1)c1ccc(F)cc1C have ED50 under 2 mg/kg?
# output 1.0

# input Please indicate whether the reported ED50 of Cc1ccccc1/C(=N/OCCN1CCC[C@@H](C(=O)O)C1)c1sccc1C (stereo in doubt; 39) is strictly below 2 mg/kg.
# output 1.0

# input Problem: For the compound Cc1cc(F)ccc1C(=COCCN1CCC[C@@H](C(=O)O)C1)c1ccc(F)cc1C , is ED50 under 2 mg/kg?
# output 0.0

# input Is ED50 of O=C(O)[C@@H]1CCCN(CCO/C=C(\c2ccc(F)cc2F)c2cc(F)ccc2F)C1 strictly below 2 mg/kg?
# output 1.0

# input Please let me know if Cl.Cn1cccc1/C(=N/OCCN1CCC[C@@H](C(=O)O)C1)c1ccccc1 shows ED50 below 2 mg/kg.
# output 0.0

# input Threshold test, ED50 < 2 mg/kg: Cc1ccccc1/C(=C\OCCN1CCC[C@@H](C(=O)O)C1)c1ccccc1
# output 1.0

# input Threshold test, ED50 < 2 mg/kg: Cc1ccccc1/C(=N\OCCN1CCC[C@H](C(=O)O)C1)c1sccc1C
# output 1.0

# input Strictly below 2 mg/kg in ED50? Cc1ccccc1/C(=N/OCCN1CCC[C@H](C(=O)O)C1)c1sccc1C.Cl
# output 0.0

# input hey, is ED50 for Cc1ccccc1/C(=C/OCCN1CCC[C@@H](C(=O)O)C1)c1ccccc1Cl lower than 2 mg/kg or not?
# output 1.0
